Molecular target: human MGL from HeLa cells (Homo sapiens (Human), UniProt Q99685)
Sequence (Q99685 whole entry): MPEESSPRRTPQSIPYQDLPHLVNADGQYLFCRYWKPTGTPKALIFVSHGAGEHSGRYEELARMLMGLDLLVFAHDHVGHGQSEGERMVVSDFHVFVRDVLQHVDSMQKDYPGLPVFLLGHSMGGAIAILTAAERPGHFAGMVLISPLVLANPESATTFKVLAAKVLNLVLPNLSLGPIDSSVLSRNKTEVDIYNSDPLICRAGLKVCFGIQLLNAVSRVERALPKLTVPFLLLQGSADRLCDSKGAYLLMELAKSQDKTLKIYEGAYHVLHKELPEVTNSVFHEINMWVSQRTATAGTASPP
Test: MGL in vitro activity assay ([glycerol-1,3-3H]-oleoyl glycerol hydrolysis, activated carbon filtration)
Settings: 300 nM [Glycerol-1,3-3H]-oleoyl glycerol, one hour
From the text: The assay used to measure the in vitro activity of MGL is adapted from the assay used for another serine hydrolase (FAAH) described in Wilson et al., 2003 (A high-throughput-compatible assay for determining the activity of fatty acid amide hydrolase. Wilson S J, Lovenberg T W, Barbier A J. Anal Biochem. 2003 Jul. 15; 318(2):270-5). […]
pIC50: −log10 of the molar value.
As shown below, each of these compounds has a reported pIC50 value.
Observation type: pIC50

Compound | Result number
COc1cc(OC2CCC3(CC2)CN(C(=O)[C@H]2C[C@@](C)(O)C2)C3)ccc1Cl | 7.82
COc1ccc(CC2CCC3(C2)CN(C(=O)[C@H]2C[C@@](C)(O)C2)C3)cc1 (mixture of isomers) | 7.12
Cn1cc(C2CCC3(C2)CN(C(=O)[C@H]2C[C@@](C)(O)C2)C3)cn1 (mixture of isomers) | 5.23
C[C@]1(O)C[C@@H](C(=O)N2CC3(CCC(Cc4ccccc4)CC3)C2)C1 | 7.40
Cc1ccc(CC2CC3(C2)CN(C(=O)[C@H]2C[C@@](C)(O)C2)C3)cc1 | 7.85
Cc1ccc(C2CCC3(C2)CN(C(=O)[C@H]2C[C@@](C)(O)C2)C3)cc1Cl (mixture of isomers) | 7.82
CCc1cccc(C2CCC3(C2)CN(C(=O)[C@H]2C[C@@](C)(O)C2)C3)c1 (mixture of isomers) | 7.24
Cc1ccc(C2CCC3(CC2)CN(C(=O)[C@H]2C[C@@](C)(O)C2)C3)cc1 | 7.46
C[C@]1(O)C[C@@H](C(=O)N2CCC3(CC2)CC(Cc2ccccc2)C3)C1 | 7.13
Cc1c(Cl)cccc1OC1CCC2(CC1)CN(C(=O)[C@H]1C[C@@](C)(O)C1)C2 | 7.66
Cn1ccc2ccc(C(F)(F)C3CC4(C3)CN(C(=O)[C@H]3C[C@@](C)(O)C3)C4)nc21 | 7.16
Cc1cc(C)cc([C@H]2CC[C@]3(CC2)CN(C(=O)[C@H]2C[C@@](C)(O)C2)[C@H]3C)c1 (stereo in doubt) | 6.49
CCc1cccc(C2CCC3(CC2)CN(C(=O)[C@H]2C[C@@](C)(O)C2)C3)c1OC | 7.80
C[C@]1(O)C[C@@H](C(=O)N2CC3(CC(Cc4cccc(OC(F)F)c4)C3)C2)C1 | 7.54
COc1cc(C2CCC3(CC2)CN(C(=O)[C@H]2C[C@@](C)(O)C2)C3)ccc1C(F)(F)F | 7.43
CC(C)c1cccc([C@@H]2CCC3(C2)CN(C(=O)[C@H]2C[C@@](C)(O)C2)C3)c1 (stereo in doubt) | 7.68

* * *

Target: human MGL from HeLa cells (Homo sapiens (Human))
Assay: MGL in vitro activity assay ([glycerol-1,3-3H]-oleoyl glycerol hydrolysis, activated carbon filtration)
Details: 300 nM [Glycerol-1,3-3H]-oleoyl glycerol, one hour
As shown below, each of these molecules has a reported IC50 value.
Observation type: IC50

Molecule | Result
Cc1cc(C)cc([C@H]2CC[C@@]3(CC2)CN(C(=O)[C@H]2C[C@@](C)(O)C2)[C@@H]3C)c1 (stereo in doubt) | 0.077 µM
CCc1cccc(CC2CC3(C2)CN(C(=O)[C@H]2C[C@@](C)(O)C2)C3)c1 | 0.0051 µM
C[C@]1(O)C[C@@H](C(=O)N2CC3(CCC(c4cnn5cccc5c4)CC3)C2)C1 | 0.027 µM
Cn1ncc2c(F)cc(CC3CC4(C3)CN(C(=O)[C@H]3C[C@@](C)(O)C3)C4)cc21 | 0.029 µM
Cc1c(F)cccc1CC1CC2(C1)CN(C(=O)[C@H]1C[C@@](C)(O)C1)C2 | 0.02 µM
C[C@]1(O)C[C@@H](C(=O)N2CC3(CCC(c4cc(Cl)cc(OC(F)(F)F)c4)CC3)C2)C1 | 0.0017 µM
C[C@]1(O)C[C@@H](C(=O)N2CC3(CCC(c4cccc(C(F)(F)F)n4)C3)C2)C1 (mixture of isomers) | 0.435 µM
Cn1ncc2ccc(CC3CC4(C3)CN(C(=O)[C@H]3C[C@@](C)(O)C3)C4)c(F)c21 | 0.028 µM
Cc1nc(OC2CCC3(CC2)CN(C(=O)[C@H]2C[C@@](C)(O)C2)C3)ccc1Cl | 0.025 µM
Cc1nc(OC2CCC3(CC2)CN(C(=O)[C@H]2C[C@@](C)(O)C2)C3)ccc1C(F)F | 0.032 µM
Cn1c(C2CCC3(C2)CN(C(=O)[C@H]2C[C@@](C)(O)C2)C3)nc2ccccc21 (mixture of isomers) | 5.53 µM
COc1cc(F)cc(C2CCC3(CC2)CN(C(=O)[C@H]2C[C@@](C)(O)C2)C3)c1F | 0.035 µM
COc1cccc(C2CCC3(CC2)CN(C(=O)[C@H]2C[C@@](C)(O)C2)C3)n1 | 0.42 µM
C[C@]1(O)C[C@@H](C(=O)N2CC3(CCC(c4cccc5nccn45)CC3)C2)C1 | 0.722 µM
CCOc1ccc(C2CCC3(CC2)CN(C(=O)[C@H]2C[C@@](C)(O)C2)C3)cc1C(F)(F)F | 0.017 µM

* * *

Target: human MGL from HeLa cells (Homo sapiens (Human), UniProt Q99685)
Test: MGL in vitro activity assay ([glycerol-1,3-3H]-oleoyl glycerol hydrolysis, activated carbon filtration)
Conditions: 300 nM [Glycerol-1,3-3H]-oleoyl glycerol, one hour
As shown below, each of these compounds has a reported log10(IC50) value.
Observation type: log10(IC50) (log10 of the value in nM)

Compound | log10(IC50)
CC(F)(F)c1ccc(OC2CCC3(CC2)CN(C(=O)[C@H]2C[C@@](C)(O)C2)C3)nc1 | 1.38
C[C@]1(O)C[C@@H](C(=O)N2CC3(CCC(Oc4ccc(C5CC5)cn4)CC3)C2)C1 | 1.30
CC(C)(C)c1ccc(C2CCC3(CCN(C(=O)[C@H]4C[C@@](C)(O)C4)CC3)C2)cc1 (mixture of isomers) | 1.26
C[C@]1(O)C[C@@H](C(=O)N2CC3(CC(Cn4ccc(C(F)(F)F)n4)C3)C2)C1 | 2.92
C[C@]1(O)C[C@@H](C(=O)N2CC3(CC[C@@H](c4cccc(C5CC5)c4)C3)C2)C1 (stereo in doubt) | 1.57
Cc1cc(CC2CC3(C2)CN(C(=O)[C@H]2C[C@@](C)(O)C2)C3)cc2c1cnn2C | 1.30
C[C@]1(O)C[C@@H](C(=O)N2CC3(CCC(Oc4ccc(OC(F)(F)F)cn4)CC3)C2)C1 | 1.45
COc1cc(F)c(F)c(C2CCC3(CC2)CN(C(=O)[C@H]2C[C@@](C)(O)C2)C3)c1 | 1.77
Cc1ccc(CC2CC3(C2)CN(C(=O)[C@H]2C[C@@](C)(O)C2)C3)cc1F | 1.08
CC(C)(C)c1cc(C2CCC3(CC2)CN(C(=O)[C@H]2C[C@@](C)(O)C2)C3)on1 | 2.25
CC(C)(C)c1cccc(C2CC3(CCN(C(=O)[C@H]4C[C@@](C)(O)C4)C3)C2)c1 (stereo partly shown) | 2.10
CC(C)c1cccc(C2CC3(C2)CN(C(=O)[C@H]2C[C@@](C)(O)C2)C3)c1 | 1.38
CC(C)(C)c1ccccc1CC1CC2(C1)CN(C(=O)[C@H]1C[C@@](C)(O)C1)C2 | 0.72
C[C@]1(O)C[C@@H](C(=O)N2CC3(CCC(c4cnn5ccccc45)CC3)C2)C1 | 2.35
CC(F)(F)c1cccc(C2CCC3(C2)CN(C(=O)[C@H]2C[C@@](C)(O)C2)C3)c1 (mixture of isomers) | 1.81
C[C@]1(O)C[C@@H](C(=O)N2CC3(CCC(c4ccc5ccn(CC(F)(F)F)c5n4)CC3)C2)C1 | 1.83

* * *

Molecular target: human MGL from HeLa cells (Homo sapiens (Human))
Assay: MGL in vitro activity assay ([glycerol-1,3-3H]-oleoyl glycerol hydrolysis, activated carbon filtration)
Settings: 300 nM [Glycerol-1,3-3H]-oleoyl glycerol, one hour
As shown below, each of these molecules has a reported IC50 value.

Molecule | Result unit | IC50
Cc1ccc(F)c(C2CCC3(CC2)CN(C(=O)[C@H]2C[C@@](C)(O)C2)C3)c1 | nM | 20
Cc1cc(OC2CCC3(CC2)CN(C(=O)[C@H]2C[C@@](C)(O)C2)C3)nc2c1ccn2C | nM | 11
COc1nc(OC2CCC3(CC2)CN(C(=O)[C@H]2C[C@@](C)(O)C2)C3)ccc1Cl | nM | 6.1
CC(C)c1cccc(CC2CC3(C2)CN(C(=O)[C@H]2C[C@@](C)(O)C2)C3)c1 | nM | 4.7
CC(C)n1ccc2ccc(CC3CC4(C3)CN(C(=O)C3CC(C)(O)C3)C4)nc21 (stereo not shown) | nM | 8.2
Cc1cc(C(F)(F)F)ccc1CC1CCC2(C1)CN(C(=O)[C@H]1C[C@@](C)(O)C1)C2 (mixture of isomers) | nM | 7.8
C[C@]1(O)C[C@@H](C(=O)N2CC3(CC[C@@H](c4cccc(C5CC5)c4F)C3)C2)C1 (stereo in doubt) | nM | 4
CC(C)(C)c1cccc(C2CCC3(C2)CN(C(=O)[C@H]2C[C@@](C)(O)C2)C3)n1 (mixture of isomers) | nM | 7.7
COc1ccnc(OC2CCC3(CC2)CN(C(=O)[C@H]2C[C@@](C)(O)C2)C3)c1Cl | nM | 81
CC(C)c1cccc(OC2CCC3(CC2)CN(C(=O)[C@H]2C[C@@](C)(O)C2)C3)c1 | nM | 27
CC(C)(C)c1cccc(C2CC3(C2)CN(C(=O)[C@H]2C[C@@](C)(O)C2)C3)c1 | nM | 9.9
CC(C)(C)c1cccc(OC2CC3(C2)CN(C(=O)[C@H]2C[C@@](C)(O)C2)C3)c1 | nM | 63
Cc1cc(C)cc(C2CCC3(CC2)CN(C(=O)[C@H]2C[C@@](C)(O)C2)C3)c1 | nM | 6.4
Cc1c(OC2CC3(C2)CN(C(=O)[C@H]2C[C@@](C)(O)C2)C3)cccc1C(F)(F)F | nM | 47
C[C@]1(O)C[C@@H](C(=O)N2CC3(CCC(Cc4ccc(OC(F)F)cc4)CC3)C2)C1 | nM | 19
CC1(c2cccc(C3CCC4(CC3)CN(C(=O)[C@H]3C[C@@](C)(O)C3)C4)n2)CC1 | nM | 5.1
